// data source = patent US20110135573A1

- tgt: T1, mouse MMP-2 (Mus musculus, UniProt P33434)
- T1 construct: purchased R&D Systems 924-MP-010
- assay text: Enzyme inhibition assay (single point inhibition, IC50/Ki,app), substrate M-2350
- Type: biochemical
- experimental parameters: IgG; Table 12
endpoint name: pKi
FYI, pKi means -log10 of a concentration in mol per litre.

Inquiry: If you can, please state the reported pKi value of X0106-F05: germlined, optimized version of M0307-F04, IgG1 (antibody, V domains shown) VH: EVQLLESGGGLVQPGGSLRLSCAASGFTFSLYDMWWVRQAPGKGLEWVSVIYSSGGYTGYADSVKGRFTISRDNSKNTLYLQMNSLRAEDTAVYYCAKDRAYGDYVGWNGFDYWGQGTLVTVSS VL: EIVLTQSPATLSLSPGERATLSCRASQSISSFLAWYQQKPGQAPRLLIYDASYRATGIPARFSGSGSGTDFTLTISSLEPEDFAVYYCQQRGNWPITFGQGTRLEIK .
Reply text: 8.52

Inquiry: Entry X0106-C03: germlined, optimized version of M0274-G08, IgG1 (antibody, V domains shown) VH: EVQLLESGGGLVQPGGSLRLSCAASGFTFSVYDMWWVRQAPGKGLEWVSVIYPSGGATYYADSVKGRFTISRDNSKNTLYLQMNSLRAEDTAVYYCAKDRAYGDYVGWNGFDYWGQGTLVTVSS VL: EIVLTQSPATLSLSPGERATLSCRASQSISSFLAWYQQKPGQAPRLLIYDASYRATGIPARFSGSGSGTDFTLTISSLEPEDFAVYYCQQRGNWPITFGQGTRLEIK : reported pKi = ?
Reply text: 8.49

Inquiry: Recorded pKi for M0237-D02: MMP-9/-2 dual reactive antibody inhibitor (parental); sFab and hIgG1 (antibody, V domains shown) VH: EVQLLESGGGLVQPGGSLRLSCAASGFTFSQYPMWWVRQAPGKGLEWVSYIVPSGGRTYYADSVKGRFTISRDNSKNTLYLQMNSLRAEDTAVYYCAKDRAYGDYVGWNGFDYWGQGTLVTVSS VL: DIQMTQSPATLSLSPGERATLSCRASQSISSFLAWYQQKPGQAPRLLIYDASYRATGIPARFSGSGSGTDFTLTISSLEPEDYAVYYCQQRGNWPITFGQGTRLEIK , please?
Reply text: 7.12

Inquiry: Requested read-out: pKi. Entry: X0106-E04: germlined, optimized version of M0275-D03, IgG1 (antibody, V domains shown) VH: EVQLLESGGGLVQPGGSLRLSCAASGFTFSQYDMWWVRQAPGKGLEWVSVIYPSGTTFYADSVKGRFTISRDNSKNTLYLQMNSLRAEDTAVYYCAKDRAYGDYVGWNGFDYWGQGTLVTVSS VL: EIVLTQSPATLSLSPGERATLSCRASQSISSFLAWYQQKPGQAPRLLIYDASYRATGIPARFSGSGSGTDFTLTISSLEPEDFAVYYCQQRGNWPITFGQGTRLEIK
Reply text: 8.41

Inquiry: Data request, read-out pKi, for X0106-A01: germlined, optimized version of M0256-D11, IgG1 (antibody, V domains shown) VH: EVQLLESGGGLVQPGGSLRLSCAASGFTFSHYDMWWVRQAPGKGLEWVSVIYSSGGPTFYADSVKGRFTISRDNSKNTLYLQMNSLRAEDTAVYYCAKDRAYGDYVGWNGFDYWGQGTLVTVSS VL: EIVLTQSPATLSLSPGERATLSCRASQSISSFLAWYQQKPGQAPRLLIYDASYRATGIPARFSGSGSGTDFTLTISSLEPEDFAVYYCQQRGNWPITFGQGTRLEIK
Reply text: 8.33

Inquiry: Could you tell me which pKi is on file for X0106-B02: germlined, optimized version of M0276-F11, IgG1 (antibody, V domains shown) VH: EVQLLESGGGLVQPGGSLRLSCAASGFTFSWYDMWWVRQAPGKGLEWVSVIYSSGGPTFYADSVKGRFTISRDNSKNTLYLQMNSLRAEDTAVYYCAKDRAYGDYVGWNGFDYWGQGTLVTVSS VL: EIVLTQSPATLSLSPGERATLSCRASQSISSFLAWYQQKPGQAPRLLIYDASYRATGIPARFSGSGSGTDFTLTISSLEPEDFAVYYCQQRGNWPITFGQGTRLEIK ?
Reply text: 8.38
